System: Kasumi-1 cells
Assay: Antiproliferation assay (XTT), Kasumi-1
Conditions: Homo sapiens, Kasumi 1, 168 h, read-out: Antiproliferative activity, EC50, Kasumi-1
TEST READOUT: EC50 (µM)

MOLECULE	TARGET OF ASSAY	TEST READOUT	BOUND TYPE	OBS VALUE
C[C@H]1CCCN1Cc1nc2cc(NC(=O)c3ccc4c(cnn4CCCCCCCCNc4cccc5c4C(=O)N(C4CCC(=O)NC4=O)C5=O)c3)ccc2[nH]1 (some centres unmarked)	Kasumi-1 cells	EC50	=	1.1
C[C@H]1CCCN1Cc1nc2cc(NC(=O)c3ccc4c(cnn4CCCCNc4cccc5c4C(=O)N(C4CCC(=O)NC4=O)C5=O)c3)ccc2[nH]1 (some centres unmarked)	Kasumi-1 cells	EC50	=	50
C[C@H]1CCCN1Cc1nc2cc(NC(=O)c3ccc4c(cnn4CCCCCCNc4cccc5c4C(=O)N(C4CCC(=O)NC4=O)C5=O)c3)ccc2[nH]1 (some centres unmarked)	Kasumi-1 cells	EC50	=	19
O=C1CCC(N2C(=O)c3ccccc3C2=O)C(=O)N1 (centres unmarked) [thalidomide, reference compound]	Kasumi-1 cells	EC50	>	50
C[C@H]1CCCN1Cc1nc2cc(NC(=O)c3ccc4c(cnn4C)c3)ccc2[nH]1 [SGC-iMLLT, reference compound]	Kasumi-1 cells	EC50	>	50

----------
Biological target: AF9 YEATS (Homo sapiens, UniProt P42568)
Sequence (P42568 1-138 limits assumed): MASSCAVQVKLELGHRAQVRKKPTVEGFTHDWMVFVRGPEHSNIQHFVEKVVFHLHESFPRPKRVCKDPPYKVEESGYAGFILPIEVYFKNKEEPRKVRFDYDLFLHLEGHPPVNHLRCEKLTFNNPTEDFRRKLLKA
Assay: ALPHA assay, inhibition of the AF9 YEATS-H3K27ac interaction
pIC50: −log10 of the molar value.
Recorded pIC50, one value per entry.

COMPOUND	pIC50
C[C@H]1CCCN1Cc1nc2cc(NC(=O)c3ccc4c(cnn4C)c3)ccc2[nH]1 [SGC-iMLLT, reference compound]	7.96
C[C@H]1CCCN1Cc1nc2cc(NC(=O)c3ccc4c(cnn4CCCCCCCCNc4cccc5c4C(=O)N(C4CCC(=O)NC4=O)C5=O)c3)ccc2[nH]1 (stereo partly shown) [Compound 1]	6.12
C[C@H]1CCCN1Cc1nc2cc(NC(=O)c3ccc4c(cnn4CCCCNc4cccc5c4C(=O)N(C4CCC(=O)NC4=O)C5=O)c3)ccc2[nH]1 (stereo partly shown) [Compound 3]	7.24
C[C@H]1CCCN1Cc1nc2cc(NC(=O)c3ccc4c(cnn4CCCCCCNc4cccc5c4C(=O)N(C4CCC(=O)NC4=O)C5=O)c3)ccc2[nH]1 (stereo partly shown) [Compound 2]	6.50

----------
System: U266 cells
Experiment: Antiproliferation assay (XTT), U266
Conditions: Homo sapiens, U-266, 168 h, read-out: Antiproliferative activity, EC50, U266
Recorded EC50, one value per entry.

MOLECULE	BOUND TYPE	EC50 [µM]
C[C@H]1CCCN1Cc1nc2cc(NC(=O)c3ccc4c(cnn4CCCCCCCCNc4cccc5c4C(=O)N(C4CCC(=O)NC4=O)C5=O)c3)ccc2[nH]1 (some centres unmarked)	=	4.1
C[C@H]1CCCN1Cc1nc2cc(NC(=O)c3ccc4c(cnn4C)c3)ccc2[nH]1 [SGC-iMLLT, reference compound]	>	50
C[C@H]1CCCN1Cc1nc2cc(NC(=O)c3ccc4c(cnn4CCCCCCNc4cccc5c4C(=O)N(C4CCC(=O)NC4=O)C5=O)c3)ccc2[nH]1 (some centres unmarked)	=	17
C[C@H]1CCCN1Cc1nc2cc(NC(=O)c3ccc4c(cnn4CCCCNc4cccc5c4C(=O)N(C4CCC(=O)NC4=O)C5=O)c3)ccc2[nH]1 (some centres unmarked)	=	2.9
O=C1CCC(N2C(=O)c3ccccc3C2=O)C(=O)N1 (centres unmarked) [thalidomide, reference compound]	>	50
